System: SUDHL10 cells
protocol: Induction of caspase-3/7 activity in SUDHL10 cells (Assay 4)
Type: cell-based
conditions used: read-out: Caspase SUDHL10 EC50 (median); caspase-3/7 induction, 3 h
Hi! Could you tag entries with EC50 below 4 µM as True, and those at or above as False? Much appreciated.

Sample answers from the record:
Task: A record lists Cc1c2c(nn1C)C(C1CC1)OCCCCn1c(C(=O)O)c(CCCOc3cccc4ccccc34)c3ccc(Cl)c-2c31 (single isomer, unassigned; enantiomer 1) [Example 35] . Is its EC50 below 4 µM?
Output: False

Task: A record lists CCc1c2c(nn1C)C(C(F)(F)F)OCCCCn1c(C(=O)O)c(CCCOc3cccc4ccccc34)c3ccc(Cl)c-2c31 (single isomer, unassigned; enantiomer 1) [Example 33] . Is its EC50 below 4 µM?
Output: False

Task: A record lists CCc1c2c(nn1C)C(CCC1CCOCC1)OCCCCn1c(C(=O)O)c(CCCOc3cccc4cc(F)ccc34)c3ccc(Cl)c-2c31 (single isomer, unassigned; enantiomer 1) [Example 63] . Is its EC50 below 4 µM?
Output: True

Task: A record lists CCc1c2c(nn1C)C(CCN1CCN(C)CC1)OCCCCn1c(C(=O)O)c(CCCOc3cccc4cc(F)ccc34)c3ccc(Cl)c-2c31 (racemic) [Example 71] . Is its EC50 below 4 µM?
Output: True

Task: A record lists Cc1c2c(nn1C)C(C1CC1)OCCCCn1c(C(=O)O)c(CCCOc3cccc4ccccc34)c3ccc(Cl)c-2c31 (single isomer, unassigned; enantiomer 2) [Example 36] . Is its EC50 below 4 µM?
Output: False

Task: A record lists CCc1c2c(nn1C)C(CC(C)(C)O)OCCCCn1c(C(=O)O)c(CCCOc3cccc4cc(F)ccc34)c3ccc(Cl)c-2c31 (single isomer, unassigned; enantiomer 1) [Example 53] . Is its EC50 below 4 µM?
Output: True

Next:
Task: A record lists CCc1c2c(nn1C)C(CCN1CCOCC1)OCCCCn1c(C(=O)O)c(CCCOc3cccc4ccccc34)c3ccc(F)c-2c31 (single isomer, unassigned; enantiomer 2) [Example 12] . Is its EC50 below 4 µM?
Output: False

Task: A record lists CCc1c2c(nn1C)C(C1CC1)OCCCCn1c(C(=O)O)c(CCCOc3cccc4cc(F)ccc34)c3ccc(Cl)c-2c31 (single isomer, unassigned; enantiomer 2) [Example 40] . Is its EC50 below 4 µM?
Output: False

Task: A record lists CCc1c2c(nn1C)C(CCN1CCOCC1)OCCCCn1c(C(=O)O)c(CCCOc3cccc4ccccc34)c3ccc(F)c-2c31 (single isomer, unassigned; enantiomer 1) [Example 11] . Is its EC50 below 4 µM?
Output: True

Task: A record lists CCC1OCCCCn2c(C(=O)O)c(CCCOc3cccc4ccccc34)c3ccc(Cl)c(c32)-c2c1nn(C)c2C (single isomer, unassigned; enantiomer 1) [Example 29] . Is its EC50 below 4 µM?
Output: True

----------
# Lookup of reported pIC50 keyed by entry
System: HMC-1-8 cells
protocol: Antiproliferation assay HMC-1-8 (Assay 7)
Assay type: cell-based
conditions used: 72 h, CellTiter-Glo, read-out: Antiproli HMC-1-8 IC50 median
The read-out pIC50 is expressed as -log10 of concentration in moles per litre.

Task: Entry Cc1c2c(nn1C)C(CCN1CCOCC1)OCCCCn1c(C(=O)O)c(CCCOc3cccc4cc(F)ccc34)c3ccc(Cl)c-2c31 (single isomer, unassigned; enantiomer 2) [Example 18] needs its pIC50 filled in; supply it.
Output: 4.90

Task: Entry CCc1c2c(nn1C)C(C(F)(F)F)OCCCCn1c(C(=O)O)c(CCCOc3cccc4ccccc34)c3ccc(Cl)c-2c31 (racemic) [Example 27] needs its pIC50 filled in; supply it.
Output: 4.68

Next:
Task: Entry CCc1c2c(nn1C)C(CC(C)(C)O)OCCCCn1c(C(=O)O)c(CCCOc3cccc4cc(F)ccc34)c3ccc(Cl)c-2c31 (racemic) [Example 52] needs its pIC50 filled in; supply it.
Output: 5.50

Task: Entry Cc1c2c(nn1C)C(C1CC1)OCCCCn1c(C(=O)O)c(CCCOc3cccc4ccccc34)c3ccc(Cl)c-2c31 (racemic) [Example 28] needs its pIC50 filled in; supply it.
Output: 4.68

Task: Entry Cc1c2c(nn1C)C(CCN1CCOCC1)OCCCCn1c(C(=O)O)c(CCCOc3cccc4ccccc34)c3ccc(Cl)c-2c31 (single isomer, unassigned; enantiomer 1) [Example 14] needs its pIC50 filled in; supply it.
Output: 6.42

Task: Entry CCc1c2c(nn1C)C(CCN1CC(F)C1)OCCCCn1c(C(=O)O)c(CCCOc3cccc4cc(F)ccc34)c3ccc(Cl)c-2c31 (racemic) [Example 108] needs its pIC50 filled in; supply it.
Output: 5.73

Task: Entry Cc1c2c(nn1C)C(CCN1CCOCC1)OCCCCn1c(C(=O)O)c(CCCOc3cccc4cc(F)ccc34)c3ccc(F)c-2c31 (single isomer, unassigned; enantiomer 2) [Example 21] needs its pIC50 filled in; supply it.
Output: 4.88

Task: Entry CCc1c2c(nn1C)C(c1ccccc1)OCCCCn1c(C(=O)O)c(CCCOc3cccc4cc(F)ccc34)c3ccc(Cl)c-2c31 (racemic) [Example 59] needs its pIC50 filled in; supply it.
Output: 5.47

Task: Entry CCc1c2c(nn1C)C(CCC1CCOCC1)OCCCCn1c(C(=O)O)c(CCCOc3cccc4cc(F)ccc34)c3ccc(Cl)c-2c31 (racemic) [Example 60] needs its pIC50 filled in; supply it.
Output: 6.02

Task: Entry CCc1c2c(nn1C)C(CCOC)OCCCCn1c(C(=O)O)c(CCCOc3cccc4cc(F)ccc34)c3ccc(Cl)c-2c31 (racemic) [Example 41] needs its pIC50 filled in; supply it.
Output: 5.88

Task: Entry CCc1c2c(nn1C)C(CCN(C)OC)OCCCCn1c(C(=O)O)c(CCCOc3cccc4cc(F)ccc34)c3ccc(Cl)c-2c31 (racemic) [Example 80] needs its pIC50 filled in; supply it.
Output: 5.80

Task: Entry CCc1c2c(nn1C)C(CCN1CCOCC1)OCCCCn1c(C(=O)O)c(CCCOc3cccc4ccccc34)c3ccc(F)c-2c31 (racemic) [Example 10] needs its pIC50 filled in; supply it.
Output: 5.83

Task: Entry CCc1c2c(nn1C)C(Cc1ccccc1)OCCCCn1c(C(=O)O)c(CCCOc3cccc4cc(F)ccc34)c3ccc(Cl)c-2c31 (racemic) [Example 92] needs its pIC50 filled in; supply it.
Output: 5.15

Task: Entry CCc1c2c(nn1C)C(CCN1CCOCC1)OCCCCn1c(C(=O)O)c(CCCOc3cccc4cc(F)ccc34)c3ccc(F)c-2c31 (racemic) [Example 49] needs its pIC50 filled in; supply it.
Output: 5.97

Task: Entry CCc1c2c(nn1C)C(CCN1CCOCC1)N(C)CCCCn1c(C(=O)O)c(CCCOc3cccc4ccccc34)c3ccc(Cl)c-2c31 (racemic) [Example 99] needs its pIC50 filled in; supply it.
Output: 5.73

Task: Entry CCc1c2c(nn1C)C(CCN1CCC(F)(F)C1)OCCCCn1c(C(=O)O)c(CCCOc3cccc4cc(F)ccc34)c3ccc(Cl)c-2c31 (single isomer, unassigned; enantiomer 1) [Example 58] needs its pIC50 filled in; supply it.
Output: 6.48

Task: Entry Cc1c2c(nn1C)C(CCN1CCOCC1)OCCCCn1c(C(=O)O)c(CCCOc3cccc4cc(F)ccc34)c3ccc(Cl)c-2c31 (racemic) [Example 16] needs its pIC50 filled in; supply it.
Output: 6.49

Task: Entry CCc1c2c(nn1C)C(CCO)OCCCCn1c(C(=O)O)c(CCCOc3cccc4cc(F)ccc34)c3ccc(Cl)c-2c31 (racemic) [Example 44] needs its pIC50 filled in; supply it.
Output: 5.58

Task: Entry CCC1OCCCCn2c(C(=O)O)c(CCCOc3cccc4ccccc34)c3ccc(Cl)c(c32)-c2c1nn(C)c2C (racemic) [Example 25] needs its pIC50 filled in; supply it.
Output: 4.89

Task: Entry CCc1c2c(nn1C)C1CCCCN1CCCCn1c(C(=O)O)c(CCCOc3cccc4ccccc34)c3ccc(Cl)c-2c31 (racemic) [Example 103] needs its pIC50 filled in; supply it.
Output: 4.70

Task: Entry CCc1c2c(nn1C)C(CCCN1CCOCC1)OCCCCn1c(C(=O)O)c(CCCOc3cccc4cc(F)ccc34)c3ccc(Cl)c-2c31 (racemic) [Example 65] needs its pIC50 filled in; supply it.
Output: 6.40

Task: Entry CCc1c2c(nn1C)C(CCC(C)(C)O)OCCCCn1c(C(=O)O)c(CCCOc3cccc4cc(F)ccc34)c3ccc(Cl)c-2c31 (racemic) [Example 74] needs its pIC50 filled in; supply it.
Output: 6.40

Task: Entry CCc1c2c(nn1C)C(CCN1CCOCC1)OCCCCn1c(C(=O)O)c(CCCOc3cccc4cc(F)ccc34)c3ccc(Cl)c-2c31 (racemic) [Example 22] needs its pIC50 filled in; supply it.
Output: 6.55
